target: Cyclin-dependent kinase 5/CDK5 activator 1 (Homo sapiens, UniProt Q00535); test: Inhibitory activity against recombinant mammalian cyclin-dependent kinase 5 (p35 NCK5a) expressed in Escherichia coli
Sequence (Q00535 whole entry): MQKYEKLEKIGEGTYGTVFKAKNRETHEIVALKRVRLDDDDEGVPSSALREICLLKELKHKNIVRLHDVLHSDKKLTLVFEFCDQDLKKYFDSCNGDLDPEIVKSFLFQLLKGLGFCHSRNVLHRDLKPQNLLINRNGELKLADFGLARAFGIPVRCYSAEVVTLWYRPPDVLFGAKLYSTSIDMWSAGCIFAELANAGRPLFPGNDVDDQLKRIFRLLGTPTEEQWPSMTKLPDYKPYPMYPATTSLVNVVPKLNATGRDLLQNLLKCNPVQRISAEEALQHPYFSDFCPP
Sequence (Q15078 whole entry, further chain): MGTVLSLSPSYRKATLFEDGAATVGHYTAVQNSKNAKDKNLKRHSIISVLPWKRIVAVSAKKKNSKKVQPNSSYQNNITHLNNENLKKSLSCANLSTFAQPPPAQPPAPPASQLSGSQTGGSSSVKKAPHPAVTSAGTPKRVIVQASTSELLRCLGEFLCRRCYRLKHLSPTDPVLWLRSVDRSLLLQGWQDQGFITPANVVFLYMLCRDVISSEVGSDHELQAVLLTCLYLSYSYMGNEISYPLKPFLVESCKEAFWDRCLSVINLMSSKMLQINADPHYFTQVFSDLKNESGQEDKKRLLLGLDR
Test Readout: IC50 (µM)

c1ccc(-c2cc3[nH]ccnc-3n2)nc1 :: 53

(I) c1coc(-c2cc3[nH]ccnc-3n2)c1
(II) COc1ccc(-c2cc3[nH]ccnc-3n2)cc1
Just curious, which one has the larger IC50 reading, I or II ? Answer with the label corresponding to your selection. I
(I: 9.3 µM, II: 4 µM)

* * *

target: Cyclin-dependent kinase 5/CDK5 activator 1 (Homo sapiens, UniProt Q00535); test: Inhibitory activity against recombinant mammalian cyclin-dependent kinase 5 (p35 NCK5a) expressed in Escherichia coli
Test Readout: IC50 (µM)

Answered cases to consult:
Oc1ccc(-c2cc3[nH]ccnc-3n2)cc1 :: 1
Cc1c(-c2ccc(O)cc2)[nH]c2nccnc12 :: 0.2
COc1cccc(-c2cc3[nH]ccnc-3n2)c1 :: 10
COc1ccccc1-c1cc2[nH]ccnc-2n1 :: 23
CCCc1c(-c2ccc(O)cc2)[nH]c2nccnc12 :: 1.2
CC(C)c1c(-c2ccc(Cl)cc2)[nH]c2nccnc12 :: 13
c1c[nH]c2cc(-c3ccsc3)nc-2n1 :: 1
Cc1c(-c2ccc(Cl)cc2)[nH]c2nccnc12 :: 5

(P) c1c[nH]c2cc(-c3ccc(C4OCCO4)cc3)nc-2n1
(Q) CCCCc1c(-c2ccc(OC)cc2)[nH]c2nccnc12 [ALOISINE]
(R) c1ccc2c(-c3cc4[nH]ccnc-4n3)cccc2c1
(S) COc1ccc(-c2[nH]c3nccnc3c2C)cc1
Your job: order these 4 records by IC50, ascending. API: response body holds the labels in the requested order. S, Q, P, R
